Source listed as patent US20220282217A1.

Biological target: HLA-A01.01 (Homo sapiens, UniProt P04439, A114D/A174V/A182V/D101N/D185E/E176A/E190D/L180R/Q94H/R68K/S129P/T187R/V100A/V91M/W191G)
Assay: Class I MHC peptide binding affinity (displacement of radiolabeled reference peptide)
Conditions: Observed Affinity (IC50; (nM)), allele A01.01
Method: In brief, MHCI complexes were prepared and bound to radiolabeled reference peptides. Peptides were incubated at varying concentrations with these complexes for 2 days, and the amount of remaining radiolabeled peptide bound to […] was measured using size exclusion gel-filtration.
Where a SMILES comes first, the peptide text is derived from it.

[
  {
    "compound": "CC[C@H](C)[C@H](N)C(=O)N[C@@H](CC(C)C)C(=O)N[C@@H](CC(=O)O)C(=O)N[C@H](C(=O)N[C@@H](C)C(=O)NCC(=O)N[C@@H](CCCNC(=N)N)C(=O)N[C@@H](CCC(=O)O)C(=O)N[C@@H](CCC(=O)O)C(=O)N[C@@H](Cc1ccc(O)cc1)C(=O)O)[C@@H](C)O (H-ILDTAGREEY-OH; N-terminus and C-terminus assumed)",
    "IC50, nM": 7
  },
  {
    "compound": "CC[C@H](C)[C@H](N)C(=O)N[C@@H](CC(C)C)C(=O)N[C@@H](CC(=O)O)C(=O)N[C@H](C(=O)N[C@@H](C)C(=O)NCC(=O)N[C@@H](CC(C)C)C(=O)N[C@@H](CCC(=O)O)C(=O)N[C@@H](CCC(=O)O)C(=O)N[C@@H](Cc1ccc(O)cc1)C(=O)O)[C@@H](C)O (H-ILDTAGLEEY-OH; N-terminus and C-terminus assumed)",
    "IC50, nM": 8.6
  },
  {
    "compound": "CC[C@H](C)[C@H](NC(=O)[C@H](CC(C)C)NC(=O)[C@H](CCC(N)=O)NC(=O)[C@@H](NC(=O)[C@@H](NC(=O)[C@H](CO)NC(=O)[C@@H](NC(=O)[C@@H](N)CC(C)C)[C@@H](C)O)[C@@H](C)O)C(C)C)C(=O)N[C@@H](CCSC)C(=O)O (H-LTSTVQLIM-OH; N-terminus and C-terminus assumed)",
    "IC50, nM": 2890
  },
  {
    "compound": "CC[C@H](C)[C@H](NC(=O)[C@H](CC(C)C)NC(=O)[C@H](CCC(N)=O)NC(=O)[C@@H](NC(=O)[C@@H](NC(=O)[C@H](CO)NC(=O)[C@@H](NC(=O)[C@H](CC(C)C)NC(=O)[C@@H](N)CS)[C@@H](C)O)[C@@H](C)O)C(C)C)C(=O)N[C@@H](CCSC)C(=O)O",
    "IC50, nM": 11000
  },
  {
    "compound": "CSCC[C@H](N)C(=O)N[C@@H](C)C(=O)N[C@@H](CC(N)=O)C(=O)NCC(=O)N[C@@H](CO)C(=O)N[C@@H](CC(C)C)C(=O)N[C@@H](CC(C)C)C(=O)N[C@@H](CC(N)=O)C(=O)N[C@@H](Cc1ccc(O)cc1)C(=O)O",
    "IC50, nM": 439
  },
  {
    "compound": "CC[C@H](C)[C@H](N)C(=O)N[C@@H](CC(C)C)C(=O)N[C@@H](CC(=O)O)C(=O)N[C@H](C(=O)N[C@@H](C)C(=O)NCC(=O)N[C@@H](Cc1c[nH]cn1)C(=O)N[C@@H](CCC(=O)O)C(=O)N[C@@H](CCC(=O)O)C(=O)N[C@@H](Cc1ccc(O)cc1)C(=O)O)[C@@H](C)O (H-ILDTAGHEEY-OH; N-terminus and C-terminus assumed)",
    "IC50, nM": 64.2
  }
]
